# assay_system: mu opioid receptor
# test: opioid receptor binding, mu ([3H]naloxone)
# Design: species or system guinea pig (method, b1124); rat (Table 4 title)
# condition_context: 0.5 nM [3H]naloxone; brain membranes; apparent Ki
Counter-ions that a name gives are not always drawn.
Kindly supply the reported Ki values for the records listed here.
Give the quantity in µM, number only.

// query What value of Ki has been reported for the following compound? CC(C1CCCCN1C)N(C)C(=O)Cc1ccc(Cl)c(Cl)c1 (stereo not drawn) [Example 4, hydrochloride]
// result 28.5

// query Another: CN1CCCC[C@H]1[C@H](c1ccccc1)N(C)C(=O)COc1ccc(Cl)c(Cl)c1
// result 0.008

// query Another: CN1CCCCC1C(c1ccc(O)cc1)N(C)C(=O)Cc1ccc(Cl)c(Cl)c1 (stereo not drawn)
// result 11.4

// query Another: CN1CCCC[C@H]1[C@H](c1ccc(F)cc1)N(C)C(=O)COc1ccc(Cl)c(Cl)c1
// result 0.054

// query Another: CN(C(=O)Cc1ccc(Cl)c(Cl)c1)[C@@H](c1ccccc1)[C@@H]1CCCCN1CC1CC1
// result 0.604

// query Another: CN1CCCCC1C(c1ccccc1)N(C)C(=O)COc1ccc(Cl)c(Cl)c1 (stereo not drawn)
// result 0.058

====

# assay_system: mu opioid receptor
# test: opioid receptor binding, mu ([3H]naloxone)
# Parameters: species or system guinea pig (method, b1124); rat (Table 4 title)
# condition_context: hydrochloride
Structures can show the parent of a compound that is named as a salt.
readout: pKi
Scale note: pKi = -log10(concentration in M).

// query What value of pKi has been reported for the following compound? CN1CCCCC1C(c1ccccc1)N(C)C(=O)Cc1ccc(Cl)c(Cl)c1 (stereo not shown) [Example 2, hydrochloride]
// result 6.57

====

# assay_system: mu opioid receptor
# test: opioid receptor binding, mu ([3H]naloxone)
# Parameters: species or system guinea pig (method, b1124); rat (Table 4 title)
Kindly supply the reported Ki values for the records listed here.

// query Form field - read-out: Ki; system: mu opioid receptor; submitted item: COc1cccc([C@@H]([C@@H]2CCCCN2C)N(C)C(=O)Cc2ccc(Cl)c(Cl)c2)c1
// result 633 nM

// query Another: CN1CCCC[C@@H]1[C@H](c1ccccc1)N(C)C(=O)COc1ccc(Cl)c(Cl)c1
// result 4620 nM

// query Another: CCN(C(=O)Cc1ccc(Cl)c(Cl)c1)C(c1ccccc1)C1CCCCN1C (centres unmarked) [Example 11]
// result 660 nM

// query Another: CN1CCCCC1C(c1ccccc1)N(C)C(=O)Cc1c(F)c(F)c(F)c(F)c1F (centres unmarked)
// result 3200 nM

// query Another: C=CCN1CCCC[C@H]1[C@H](c1ccccc1)N(C)C(=O)Cc1ccc(Cl)c(Cl)c1
// result 530 nM

// query Another: CN1CCCC[C@@H]1[C@@H](c1ccccc1)N(C)C(=O)COc1ccc(Cl)c(Cl)c1
// result 195 nM

// query Another: CN1CCCCC1C(c1ccccc1)N(C)C(=O)Cc1ccc(Cl)cc1Cl (centres unmarked)
// result 625 nM

// query Another: CN1CCCC[C@@H]1[C@@H](c1ccccc1)N(C)C(=O)Cc1ccc(Cl)c(Cl)c1
// result 253 nM

====

Kindly supply the reported ED50 values for the records listed here.
# test: phenylquinone writhing test (PQW), analgesic activity in mice
# Assay type: in vivo, male white mice (CFl)
# condition_context: Mus musculus, sc
Where a name gives a salt, the structure may show the parent alone.

// query What value of ED50 has been reported for the following compound? CN1CCCC[C@H]1[C@H](c1ccccc1)N(C)C(=O)Cc1cccc2occc12
// result 0.57 mg/kg

// query Another: CN1CCCC[C@H]1[C@H](c1ccc(F)cc1)N(C)C(=O)Cc1ccc(Cl)c(Cl)c1
// result 1.7 mg/kg

// query Another: CC(C1CCCCN1C)N(C)C(=O)Cc1ccc(Cl)c(Cl)c1 (centres unmarked) [Example 4, hydrochloride]
// result 67 mg/kg

// query Another: CN1CCCC[C@H]1[C@H](c1ccccc1)N(C)C(=O)COc1ccc(Cl)c(Cl)c1
// result 0.078 mg/kg

// query Another: CN1CCCC[C@H]1[C@@H](c1ccccc1)N(C)C(=O)COc1ccc(Cl)c(Cl)c1
// result 67 mg/kg

// query Another: COc1cccc([C@@H]([C@@H]2CCCCN2C)N(C)C(=O)COc2ccc(Cl)c(Cl)c2)c1
// result 0.29 mg/kg

// query Another: CN1CCCC[C@@H]1[C@H](c1ccccc1)N(C)C(=O)COc1ccc(Cl)c(Cl)c1
// result 12 mg/kg

// query Another: CN(C(=O)Cc1ccc(Cl)c(Cl)c1)C(c1ccccc1)C1CCCCN1CC1CC1 (centres unmarked) [Example 3, hydrochloride]
// result > 81 mg/kg

// query Another: CN1CCCCC1C(c1ccccc1)N(C)C(=O)Cc1c(F)c(F)c(F)c(F)c1F (centres unmarked)
// result 16 mg/kg

// query Another: CN1CCCCC1C(Cc1ccccc1)N(C)C(=O)Cc1ccc(Cl)c(Cl)c1 (centres unmarked)
// result > 81 mg/kg

// query Another: CN1CCCC[C@H]1[C@@H](c1ccccc1)N(C)C(=O)Cc1ccc(Cl)c(Cl)c1
// result > 81 mg/kg

// query Another: CN1CCCCC1C(c1cccc(O)c1)N(C)C(=O)Cc1ccc(Cl)c(Cl)c1 (centres unmarked) [Example 6, hydrobromide]
// result 18 mg/kg

// query Another: CN1CCCC[C@H]1[C@H](c1ccc(F)cc1)N(C)C(=O)COc1ccc(Cl)c(Cl)c1
// result 0.24 mg/kg

// query Another: CN1CCCCC1C(c1ccccc1)N(C)C(=O)Cc1ccc(Cl)cc1Cl (centres unmarked)
// result 8.1 mg/kg

// query Another: COc1cccc(C(C2CCCCN2C)N(C)C(=O)Cc2ccc(Cl)c(Cl)c2)c1 (centres unmarked) [Example 5, hydrochloride]
// result 1.3 mg/kg

// query Another: CN1CCCC[C@H]1[C@H](c1ccccc1)N(C)C(=O)Cc1ccc(Cl)c(Cl)c1 [Example 106, hydrochloride]
// result 0.37 mg/kg

// query Another: COc1ccc(C(C2CCCCN2C)N(C)C(=O)Cc2ccc(Cl)c(Cl)c2)cc1 (centres unmarked) [Example 7, hydrochloride]
// result > 81 mg/kg

// query Another: CN1CCCCC1C(c1ccc(O)cc1)N(C)C(=O)Cc1ccc(Cl)c(Cl)c1 (centres unmarked)
// result > 81 mg/kg

// query Another: COc1cccc([C@@H]([C@@H]2CCCCN2C)N(C)C(=O)Cc2ccc(Cl)c(Cl)c2)c1
// result 1.6 mg/kg

// query Another: CN(C(=O)Cc1ccc(Cl)c(Cl)c1)[C@@H](c1ccccc1)[C@@H]1CCCCN1CC1CC1
// result > 81 mg/kg

// query Another: CN1CCCC[C@@H]1[C@@H](c1ccccc1)N(C)C(=O)COc1ccc(Cl)c(Cl)c1
// result 1.3 mg/kg

// query Another: C=CCN1CCCC[C@H]1[C@H](c1ccccc1)N(C)C(=O)Cc1ccc(Cl)c(Cl)c1
// result > 81 mg/kg

// query Another: CN1CCCC[C@H]1[C@H](c1cccc(O)c1)N(C)C(=O)Cc1ccc(Cl)c(Cl)c1
// result 36 mg/kg

// query Another: CN1CCCCC1C(c1ccccc1)N(C)C(=O)COc1ccc(Cl)c(Cl)c1 (centres unmarked)
// result 0.11 mg/kg

// query Another: CN1CCCC[C@H]1[C@H](c1cccc(O)c1)N(C)C(=O)COc1ccc(Cl)c(Cl)c1
// result 4.2 mg/kg

// query Another: CN1CCCC[C@@H]1[C@@H](c1ccccc1)N(C)C(=O)Cc1ccc(Cl)c(Cl)c1
// result 13 mg/kg

====

# assay_system: kappa opioid receptor (Cavia porcellus, UniProt P41144)
# Construct: Whole brains were homogenized (20 sec) in 10 vol (wt/vol) of ice-cold 0.34 M sucrose; tissue Charles River (animals); host or cells: guinea pig whole-brain membranes
# Sequence (P41144 whole entry): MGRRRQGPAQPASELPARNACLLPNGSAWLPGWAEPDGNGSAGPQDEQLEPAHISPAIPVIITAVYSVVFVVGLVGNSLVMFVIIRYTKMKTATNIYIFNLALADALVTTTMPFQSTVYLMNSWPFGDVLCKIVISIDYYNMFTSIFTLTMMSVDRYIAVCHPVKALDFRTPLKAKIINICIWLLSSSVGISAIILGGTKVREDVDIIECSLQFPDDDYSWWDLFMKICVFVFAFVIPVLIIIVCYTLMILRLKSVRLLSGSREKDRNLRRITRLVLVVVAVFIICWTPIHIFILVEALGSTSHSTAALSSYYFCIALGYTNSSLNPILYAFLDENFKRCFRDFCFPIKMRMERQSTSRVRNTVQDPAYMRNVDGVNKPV
# test: opioid receptor binding, kappa ((-)-[3H]ethylketocycloazocine)
# Design: species or system guinea pig (method, b1124); rat (Table 4 title)
Where a name gives a salt, the structure may show the parent alone.
Kindly supply the reported pKi values for the records listed here.
Scale note: pKi = -log10(concentration in M).

// query What value of pKi has been reported for the following molecule? CN1CCCCC1C(c1ccc(O)cc1)N(C)C(=O)Cc1ccc(Cl)c(Cl)c1 (stereo not drawn)
// result 5.59

// query Another: CC(C1CCCCN1C)N(C)C(=O)Cc1ccc(Cl)c(Cl)c1 (stereo not drawn) [Example 4, hydrochloride]
// result 5.89

// query Another: CN1CCCCC1C(Cc1ccccc1)N(C)C(=O)Cc1ccc(Cl)c(Cl)c1 (stereo not drawn)
// result 5.40

// query Another: COc1ccc(C(C2CCCCN2C)N(C)C(=O)Cc2ccc(Cl)c(Cl)c2)cc1 (stereo not drawn) [Example 7, hydrochloride]
// result 5.34

// query Another: CN(C(=O)Cc1ccc(Cl)c(Cl)c1)C(c1ccccc1)C1CCCCN1CC1CC1 (stereo not drawn) [Example 3, hydrochloride]
// result 6.28

// query Another: CN(C(=O)Cc1ccc(Cl)c(Cl)c1)[C@@H](c1ccccc1)[C@@H]1CCCCN1CC1CC1
// result 6.40
